# system: P300 (Homo sapiens, UniProt Q09472)
# Sequence (Q09472 whole entry): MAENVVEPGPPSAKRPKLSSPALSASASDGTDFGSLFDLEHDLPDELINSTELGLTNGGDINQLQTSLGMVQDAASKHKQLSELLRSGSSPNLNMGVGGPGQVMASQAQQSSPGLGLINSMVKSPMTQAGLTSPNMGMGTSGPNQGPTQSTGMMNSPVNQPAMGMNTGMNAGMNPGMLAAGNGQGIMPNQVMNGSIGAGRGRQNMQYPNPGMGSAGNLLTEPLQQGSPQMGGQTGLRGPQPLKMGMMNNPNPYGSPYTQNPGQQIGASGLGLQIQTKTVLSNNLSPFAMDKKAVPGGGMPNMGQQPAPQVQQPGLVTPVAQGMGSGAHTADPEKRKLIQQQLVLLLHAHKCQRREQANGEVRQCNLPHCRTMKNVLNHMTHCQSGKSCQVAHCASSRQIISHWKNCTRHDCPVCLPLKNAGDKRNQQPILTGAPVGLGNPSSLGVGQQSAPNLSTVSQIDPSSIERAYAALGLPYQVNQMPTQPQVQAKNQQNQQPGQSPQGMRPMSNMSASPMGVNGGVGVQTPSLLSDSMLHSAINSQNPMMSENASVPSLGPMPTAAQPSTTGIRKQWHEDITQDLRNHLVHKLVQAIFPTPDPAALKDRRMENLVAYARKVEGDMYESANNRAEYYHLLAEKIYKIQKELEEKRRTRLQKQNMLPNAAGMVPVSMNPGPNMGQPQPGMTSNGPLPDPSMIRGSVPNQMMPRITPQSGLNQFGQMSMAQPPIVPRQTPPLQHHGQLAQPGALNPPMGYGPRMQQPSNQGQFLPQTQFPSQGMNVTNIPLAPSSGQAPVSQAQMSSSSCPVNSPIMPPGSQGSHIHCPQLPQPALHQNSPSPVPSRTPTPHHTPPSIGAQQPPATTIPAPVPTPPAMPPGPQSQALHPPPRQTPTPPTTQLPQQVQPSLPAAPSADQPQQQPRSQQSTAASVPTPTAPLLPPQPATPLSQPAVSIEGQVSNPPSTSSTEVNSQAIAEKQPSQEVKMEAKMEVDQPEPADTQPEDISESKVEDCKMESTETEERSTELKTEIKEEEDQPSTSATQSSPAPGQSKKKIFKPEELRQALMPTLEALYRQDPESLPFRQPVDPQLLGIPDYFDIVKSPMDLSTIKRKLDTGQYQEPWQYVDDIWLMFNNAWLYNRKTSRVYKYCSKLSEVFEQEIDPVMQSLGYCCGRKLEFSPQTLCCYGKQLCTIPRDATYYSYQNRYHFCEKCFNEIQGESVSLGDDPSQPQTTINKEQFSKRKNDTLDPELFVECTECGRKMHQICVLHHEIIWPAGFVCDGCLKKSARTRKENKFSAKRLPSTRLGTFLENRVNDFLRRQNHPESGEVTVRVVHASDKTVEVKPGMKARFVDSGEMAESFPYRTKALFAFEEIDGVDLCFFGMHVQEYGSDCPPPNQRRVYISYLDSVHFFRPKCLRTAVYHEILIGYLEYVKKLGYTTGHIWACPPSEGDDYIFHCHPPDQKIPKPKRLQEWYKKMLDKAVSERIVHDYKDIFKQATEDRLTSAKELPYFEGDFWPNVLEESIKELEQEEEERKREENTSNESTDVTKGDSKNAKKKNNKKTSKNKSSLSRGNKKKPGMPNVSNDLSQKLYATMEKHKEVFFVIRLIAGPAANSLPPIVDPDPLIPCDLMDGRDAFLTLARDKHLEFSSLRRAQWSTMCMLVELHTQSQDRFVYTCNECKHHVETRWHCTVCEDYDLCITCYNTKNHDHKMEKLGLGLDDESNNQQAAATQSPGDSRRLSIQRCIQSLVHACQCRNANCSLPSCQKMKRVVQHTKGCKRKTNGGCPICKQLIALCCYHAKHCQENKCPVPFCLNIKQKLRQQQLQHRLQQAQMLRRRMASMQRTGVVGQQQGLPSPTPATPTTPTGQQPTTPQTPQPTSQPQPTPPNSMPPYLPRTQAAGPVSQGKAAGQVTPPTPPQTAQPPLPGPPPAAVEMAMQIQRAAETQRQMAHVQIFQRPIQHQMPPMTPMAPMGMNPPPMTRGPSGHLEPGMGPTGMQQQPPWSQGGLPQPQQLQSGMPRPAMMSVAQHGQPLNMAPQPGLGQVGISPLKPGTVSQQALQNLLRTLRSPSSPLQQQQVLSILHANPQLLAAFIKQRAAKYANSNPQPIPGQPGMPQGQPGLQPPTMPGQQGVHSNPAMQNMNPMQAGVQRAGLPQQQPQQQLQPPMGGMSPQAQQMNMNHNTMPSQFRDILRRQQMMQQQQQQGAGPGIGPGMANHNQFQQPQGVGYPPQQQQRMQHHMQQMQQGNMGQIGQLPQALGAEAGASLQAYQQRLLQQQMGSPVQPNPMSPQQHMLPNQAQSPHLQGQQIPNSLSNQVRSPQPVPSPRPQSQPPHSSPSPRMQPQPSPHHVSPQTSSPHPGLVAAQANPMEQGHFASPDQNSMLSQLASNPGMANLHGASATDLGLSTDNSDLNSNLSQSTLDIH
# method notes: percentage of inhibition (degradation) of p300 at 10 nM, Tables 2-4
# Format: cell-based
# Set-up: LNCaP or 22RV1 cells that express CBP/P300 proteins were treated with GNE-781 or the bivalent compounds; endogenous in cells; host or cells: LNCaP or 22RV1 (not given)
# test context: p300, 10 nM; Table 4; read-out: Degradation (10 nM)
Would you kindly list inhibition at 0.01 µM for each of these compounds?

Recorded inhibition at 0.01 µM of CC(=O)N1CCc2c(c(N3CCCc4cc(-c5cnn(C)c5)c(C(F)F)cc43)nn2C2CCN(C(=O)CCCN3CCC(CNc4cccc5c4n(C)c(=O)n5C4CCC(=O)NC4=O)CC3)CC2)C1 (centres unmarked) [P-214] , please. 20 to 50%

Now this one: CC(=O)N1CCc2c(c(N3CCCc4cc(-c5cnn(C)c5)c(C(F)F)cc43)nn2C2CCN(CCC3CCN(c4cccc5c4C(=O)N(C4CCC(=O)NC4=O)C5=O)CC3)CC2)C1 (centres unmarked) [P-192] 50 to 80%

Now this one: CC(=O)N1CCc2c(c(N3CCCc4cc(-c5cnn(C)c5)c(C(F)F)cc43)nn2C2CCN(C(=O)CCCN3CCC(CCc4ccc5c(c4)n(C)c(=O)n5C4CCC(=O)NC4=O)CC3)CC2)C1 (centres unmarked) [P-222] > 80%

Now this one: CC(=O)N1CCc2c(c(N3CCCc4cc(-c5cnn(C)c5)c(C(F)F)cc43)nn2C2CCN(CCC3CCN(CCCc4cccc5c4C(=O)N(C4CCC(=O)NC4=O)C5=O)CC3)CC2)C1 (centres unmarked) [P-246] 20 to 50%

Now this one: CC(=O)N1CCc2c(c(N3CCCc4cc(-c5cnn(C)c5)c(C(F)F)cc43)nn2C2CCN(C(=O)CCCCCCCCCC(=O)Nc3cccc(NC4CCC(=O)NC4=O)c3)CC2)C1 (centres unmarked) [P-265] < 20%

Now this one: CC(=O)N1CCc2c(c(N3CCCc4cc(-c5cnn(C)c5)c(C(F)F)cc43)nn2C2CCN(C(=O)CCN3CCC(Cn4c(=O)n(C5CCC(=O)NC5=O)c5ccccc54)CC3)CC2)C1 (centres unmarked) [P-205] < 20%

Now this one: CC(=O)N1CCc2c(c(N3CCCc4cc(-c5cnn(C)c5)c(C(F)F)cc43)nn2C2CCN(CCCC3CCN(c4cccc5c4C(=O)N(C4CCC(=O)NC4=O)C5=O)CC3)CC2)C1 (centres unmarked) [P-249] > 80%

Now this one: CC(=O)N1CCc2c(c(N3CCCc4cc(-c5cnn(C)c5)c(C(F)F)cc43)nn2C2CCN(C(=O)CN3CCC(CCc4cccc5c4n(C)c(=O)n5C4CCC(=O)NC4=O)CC3)CC2)C1 (centres unmarked) [P-228] > 80%

Now this one: CC(=O)N1CCc2c(c(N3CCCc4cc(-c5cnn(C)c5)c(C(F)F)cc43)nn2C2CCN(CCCN3CCN(c4cccc5c4C(=O)N(C4CCC(=O)NC4=O)C5=O)CC3)CC2)C1 (centres unmarked) [P-247] < 20%

Now this one: CC(=O)N1CCc2c(c(N3CCCc4cc(-c5cnn(C)c5)c(C(F)F)cc43)nn2C2CCN(C(=O)CN3CCN(CC#Cc4ccc5c(c4)n(C)c(=O)n5C4CCC(=O)NC4=O)CC3)CC2)C1 (centres unmarked) [P-219] 20 to 50%

Now this one: CC(=O)N1CCc2c(c(N3CCCc4cc(-c5cnn(C)c5)c(C(F)F)cc43)nn2C2CCN(CCCN3CCC(C#Cc4cccc5c4n(C)c(=O)n5C4CCC(=O)NC4=O)CC3)CC2)C1 (centres unmarked) [P-250] > 80%

Now this one: CC(=O)N1CCc2c(c(N3CCCc4cc(-c5cnn(C)c5)c(C(F)F)cc43)nn2C2CCN(C(=O)CCCNc3ccc(C(=O)NC4CCC(=O)NC4=O)c4ncccc34)CC2)C1 (centres unmarked) [P-253] > 80%

Now this one: CC(=O)N1CCc2c(c(N3CCCc4cc(-c5cnn(C)c5)c(C(F)F)cc43)nn2C2CCN(C(=O)CCN3CCN(Cc4cccc5c4n(C)c(=O)n5C4CCC(=O)NC4=O)CC3)CC2)C1 (centres unmarked) [P-208] > 80%

Now this one: CC(=O)N1CCc2c(c(N3CCCc4cc(-c5cnn(C)c5)c(C(F)F)cc43)nn2C2CCN(C(=O)CCCCCNc3ccc(C(=O)NC4CCC(=O)NC4=O)c4ncccc34)CC2)C1 (centres unmarked) [P-242] > 80%

Now this one: CC(=O)N1CCc2c(c(N3CCCc4cc(-c5cnn(C)c5)c(C(F)F)cc43)nn2C2CCN(C(=O)CCN3CCC(CNc4cccc5c4n(C)c(=O)n5C4CCC(=O)NC4=O)CC3)CC2)C1 (centres unmarked) [P-213] < 20%

Now this one: CC(=O)N1CCc2c(c(N3CCCc4cc(-c5cnn(C)c5)c(C(F)F)cc43)nn2C2CCN(Cc3ccc(COc4cccc5c4C(=O)N(C4CCC(=O)NC4=O)C5=O)cc3)CC2)C1 (centres unmarked) [P-195] 50 to 80%

Now this one: CC(=O)N1CCc2c(c(N3CCCc4cc(-c5cnn(C)c5)c(C(F)F)cc43)nn2C2CCN(Cc3cccc(COc4cccc5c4CN(C4CCC(=O)NC4=O)C5=O)c3)CC2)C1 (centres unmarked) [P-202] 50 to 80%

Now this one: CC(=O)N1CCc2c(c(N3CCCc4cc(-c5cnn(C)c5)c(C(F)F)cc43)nn2C2CCN(C(=O)CCCN3CCC(C#Cc4cccc5c4ccn5C4CCC(=O)NC4=O)CC3)CC2)C1 (centres unmarked) [P-223] 50 to 80%

Now this one: CC(=O)N1CCc2c(c(N3CCCc4cc(-c5cnn(C)c5)c(C(F)F)cc43)nn2C2CCN(C(=O)CCN3CCN(CC#Cc4ccc5c(c4)n(C)c(=O)n5C4CCC(=O)NC4=O)CC3)CC2)C1 (centres unmarked) [P-233] 50 to 80%

Now this one: CC(=O)N1CCc2c(c(N3CCCc4cc(-c5cnn(C)c5)c(C(F)F)cc43)nn2C2CCN(C(=O)CC3CCN(c4ccc(C(=O)NC5CCC(=O)NC5=O)c5ncccc45)CC3)CC2)C1 (centres unmarked) [P-256] > 80%

----------
# system: UniProt:Q09472
# method notes: percentage of inhibition (degradation) of p300 at 10 nM, Tables 2-4
# Format: cell-based
# Design: LNCaP or 22RV1 cells that express CBP/P300 proteins were treated with GNE-781 or the bivalent compounds; endogenous in cells; host or cells: LNCaP or 22RV1 (not given)
# test context: p300, 10 nM; Table 4; read-out: Degradation (10 nM)
Would you kindly list inhibition at 0.01 µM for each of these molecules?

Recorded inhibition at 0.01 µM of CC(=O)N1CCc2c(c(N3CCCc4cc(-c5cnn(C)c5)c(C(F)F)cc43)nn2C2CCN(C(=O)CCN3CCN(CCCc4ccc5c(c4)n(C)c(=O)n5C4CCC(=O)NC4=O)CC3)CC2)C1 (centres unmarked) , please. > 80%

Now this one: CC(=O)N1CCc2c(c(N3CCCc4cc(-c5cnn(C)c5)c(C(F)F)cc43)nn2C2CCN(C(=O)CCCN3CCN(CCCc4cccc5c4n(C)c(=O)n5C4CCC(=O)NC4=O)CC3)CC2)C1 (centres unmarked) 50 to 80%

Now this one: CC(=O)N1CCc2c(c(N3CCCc4cc(-c5cnn(C)c5)c(C(F)F)cc43)nn2C2CCN(C(=O)CCCN3CCC(CNc4ccc5c(c4)n(C)c(=O)n5C4CCC(=O)NC4=O)CC3)CC2)C1 (centres unmarked) 50 to 80%

Now this one: CC(=O)N1CCc2c(c(N3CCCc4cc(-c5cnn(C)c5)c(C(F)F)cc43)nn2C2CCN(C(=O)CCCN3CCC(C#Cc4cccc5c4n(C)c(=O)n5C4CCC(=O)NC4=O)CC3)CC2)C1 (centres unmarked) > 80%

Now this one: CC(=O)N1CCc2c(c(N3CCCc4cc(-c5cnn(C)c5)c(C(F)F)cc43)nn2C2CCN(C(=O)CCCCNc3ccc(C(=O)NC4CCC(=O)NC4=O)c4ncccc34)CC2)C1 (centres unmarked) > 80%

----------
# system: P300 (Homo sapiens, UniProt Q09472)
# method notes: percentage of inhibition (degradation) of p300 at 10 nM, Tables 2-4
# Assay type: cell-based
# Set-up: LNCaP or 22RV1 cells that express CBP/P300 proteins were treated with GNE-781 or the bivalent compounds; endogenous in cells; host or cells: LNCaP or 22RV1 (not given)
# test context: p300, 10 nM; Table 4; read-out: Degradation (10 nM)
measurement label: inhibition at 0.01 µM

Recorded inhibition at 0.01 µM of CC(=O)N1CCc2c(c(N3CCCc4cc(-c5cnn(C)c5)c(C(F)F)cc43)nn2C2CCN(C(=O)CCN3CCC(CCc4ccc5c(c4)n(C)c(=O)n5C4CCC(=O)NC4=O)CC3)CC2)C1 (stereo not drawn) , please. > 80%

Now this one: CC(=O)N1CCc2c(c(N3CCCc4cc(-c5cnn(C)c5)c(C(F)F)cc43)nn2C2CCN(CCCN3CCC(Cn4c(=O)n(C5CCC(=O)NC5=O)c5ccccc54)CC3)CC2)C1 (stereo not drawn) < 20%

Now this one: CC(=O)N1CCc2c(c(N3CCCc4cc(-c5cnn(C)c5)c(C(F)F)cc43)nn2C2CCN(CCCN3CCC(CCc4cccc5c4C(=O)N(C4CCC(=O)NC4=O)C5=O)CC3)CC2)C1 (stereo not drawn) 50 to 80%
